Where do these numbers come from? They come from patent US20250129430A1.

Test system: SNU719
Test: Cell viability drug screen, 12-point dose-response AUC
Format: cell-based, human
Settings: SNU719 cells; 72 hours
observed.property: Average Area Under the Viability Curve (AUC), AUC norm value

# compound, obs.value
measured = [
    ("O=C(/C=C/c1cccnc1)NCCCCC1CCN(C(=O)c2ccccc2)CC1 [APO866 (FK866), APO866]", 1.275),
    ("COc1cc(N2CCC(N3CCN(C)CC3)CC2)ccc1Nc1ncc(Cl)c(Nc2ccccc2S(=O)(=O)C(C)C)n1 [TAE684 (NVP-TAE684), TAE684]", 1.051),
    ("C/C=C(\\C)C(=O)N[C@@H](c1ccccc1)[C@@H](O)C(=O)O[C@H]1C[C@@]2(O)[C@@H](OC(=O)c3ccccc3)[C@@H]3[C@]4(OC(C)=O)CO[C@@H]4C[C@H](O)[C@@]3(C)C(=O)[C@H](OC(C)=O)C(=C1C)C2(C)C [Cephalomannine]", 4.893),
    ("Nc1ccn([C@@H]2O[C@H](CO)[C@@H](O)C2(F)F)c(=O)n1 [Gemcitabine (Gemzar), Gemcitabine]", 3.628),
    ("Cc1ccc(S(=O)(=O)/C=C/C#N)cc1 [BAY 11-7082 (BAY 11-7821), BAY 11-7082]", 1.377),
    ("CC(C)(C)c1ccc(C(O)CCCN2CCC(C(O)(c3ccccc3)c3ccccc3)CC2)cc1 (centres unmarked) [Terfenadine]", 1.059),
    ("CC(C)C[C@H](NC(=O)CNC(=O)c1cc(Cl)ccc1Cl)B1OC(=O)C(CC(=O)O)(CC(=O)O)O1 [MLN9708]", 1.304),
    ("COc1cccc2c1C(=O)c1c(O)c3c(c(O)c1C2=O)C[C@@](O)(C(=O)CO)C[C@@H]3O[C@H]1C[C@H](N)[C@H](O)[C@H](C)O1 [Doxorubicin (Adriamycin), Doxorubicin]", 4.66),
]
